EXPERIMENT_NOTES: in vitro
EXPERIMENTAL_PARAMETERS: human, hela cells, % viability
RECORDED_METRIC: viability at 28.5 h, 10 µM

Asked: Query: viability at 28.5 h, 10 µM; subject: COc1ccccc1NC(=O)C(=O)NCc1cccnc1
Given back: 97.5%

Asked: Entry under review: O=C(Nc1nc(-c2cccs2)cs1)c1ccc(F)cc1 . Reported viability at 28.5 h, 10 µM?
Given back: 86.7%

Asked: # lookup: viability at 28.5 h, 10 µM of FC(F)(F)Oc1ccc(-c2cncc(N3CCN(c4ccncc4)CC3)n2)cc1 [CBK059230C]
Given back: 88.9%

Asked: Request the reported viability at 28.5 h, 10 µM associated with CC(=O)Nc1c(-c2ccc(C)cc2)c(=O)c2ccccc2n1C
Given back: 88%

Asked: Can you share its viability at 28.5 h, 10 µM? I mean this molecule: Cc1noc(C)c1NC(=O)c1ccnc2ccccc12
Given back: 96.3%

Asked: Any idea what viability at 28.5 h, 10 µM was measured for CC(NC(=O)Cc1c[nH]c(=O)[nH]c1=O)c1cc2cc(Cl)ccc2o1 (stereo not shown) ?
Given back: 100%

Asked: Please look up its viability at 28.5 h, 10 µM: O=C(Nc1sc2c(c1CN1CCCCCC1)CCCC2)c1ccccc1
Given back: 91%

Asked: Quick one: viability at 28.5 h, 10 µM for Cc1ccn(-c2ccc(N3CCNCC3)nn2)n1 ?
Given back: 97.4%

Asked: Name the reported viability at 28.5 h, 10 µM value associated with the molecule CN1CCC(=NNC(=O)CN(c2cccc([N+](=O)[O-])c2)S(=O)(=O)c2ccccc2)CC1
Given back: 90.3%

Asked: State the recorded viability at 28.5 h, 10 µM for this entry: CN1C(=O)COc2ccccc2CCCC[C@@H]2[C@H]1CCCN2C(=O)CNS(C)(=O)=O
Given back: 113%

Asked: Which measured viability at 28.5 h, 10 µM value corresponds to Cc1cccnc1Nc1nc(-c2ccccn2)cs1 ?
Given back: 91.5%

Asked: Quick one: viability at 28.5 h, 10 µM for O=S(=O)(c1ccc(Cl)cc1)N1CCN(CC(O)Cn2c3ccccc3c3ccccc32)CC1 (stereo not shown) ?
Given back: 105%

Asked: I'd like to know its viability at 28.5 h, 10 µM. The molecule in question is CCOC(=O)N1CCN(C(=O)C2CC=CCC2C(=O)O)CC1 (stereo not shown)
Given back: 104%

Asked: Entry Cc1cc(=O)[nH]c2c1c(=O)[nH]n2C1CCCCCC1 has what viability at 28.5 h, 10 µM?
Given back: 80.8%

Asked: Find the recorded viability at 28.5 h, 10 µM belonging to C#CCN(C1CCc2ccccc21)S(=O)(=O)c1cc(C(=O)NC)n(C)c1 (stereo not shown) and report it.
Given back: 91.8%

Asked: Query (molecule): CC(C)(C)S(=O)(=O)c1ccc(C(=O)O)s1 ; field requested: viability at 28.5 h, 10 µM
Given back: 91.4%

Asked: # lookup: viability at 28.5 h, 10 µM of Brc1ccc(CN2CCN3CCCC3C2C2CCCCC2)o1 (stereo not shown)
Given back: 82.6%

Asked: Endpoint output: viability at 28.5 h, 10 µM of CC(C)NC(=O)NC(=O)C1CCN(CCOc2ccc(Cl)cc2Cl)CC1 . Value?
Given back: 106%

Asked: Fill in: viability at 28.5 h, 10 µM of CC(C)c1ccc(NC(=O)CSc2nnc(Cc3cccc4ccccc34)o2)cc1 is ___
Given back: 88.7%

Asked: So what's the measured viability at 28.5 h, 10 µM for this one? CCOC(=O)NC(=O)Nc1cc2ccccc2c(Br)n1
Given back: 88.1%

Asked: Can you share its viability at 28.5 h, 10 µM? I mean this molecule: Clc1cc(N[C@@H]2CCN(Cc3ccccc3)C2)n2nccc2n1
Given back: 92.3%

Asked: Fill in: viability at 28.5 h, 10 µM of Cc1nc(CN(C)C2CCN(Cc3ccc4c(c3)CCC4)C2)no1 (stereo not shown) is ___
Given back: 76.5%

Asked: # lookup: viability at 28.5 h, 10 µM of CC(C)(C)c1ccnc(N[C@H]2CO[C@H]3[C@@H]2OC[C@@H]3NCc2ccccn2)n1
Given back: 86.6%

Asked: So what does the record say about viability at 28.5 h, 10 µM for COc1cc(CN2CCN(C(=O)c3cccc(F)c3)CC2)cc(OC)c1O ?
Given back: 95.2%

Asked: Which viability at 28.5 h, 10 µM reading was recorded for the molecule CC(C)C(NC(=O)c1cccc(-n2cnnc2)c1)c1cccs1 (stereo not shown) ?
Given back: 111%

* * *

EXPERIMENT_NOTES: in vitro
EXPERIMENTAL_PARAMETERS: human, hela cells, % viability
Output True for records whose viability at 28.5 h, 10 µM is lower than 90%, False for records at or above 90%.

Asked: Regarding CN(c1ncc(-c2ccccc2)cc1C(=O)NCc1ccco1)S(C)(=O)=O , kindly confirm whether its viability at 28.5 h, 10 µM is beneath 90%.
Given back: True

Asked: Could you please tell me whether viability at 28.5 h, 10 µM recorded for CN(C)CCCNc1ccc(C(F)(F)F)cn1 is less than 90%?
Given back: True

Asked: Problem: For the compound CCc1nc2ccccc2n1CC(=O)N(C)C(C)c1cccnc1 (centres unmarked) , is viability at 28.5 h, 10 µM under 90%?
Given back: False

Asked: Decide: viability at 28.5 h, 10 µM of CC(CCc1ccccc1)N(C)CCN(C)C (centres unmarked) strictly below 90%?
Given back: True

Asked: I wonder whether NS(=O)(=O)c1cc(C(=O)NCCc2ccc(F)cc2)c(Cl)cc1Cl has viability at 28.5 h, 10 µM below 90%. Can you tell?
Given back: False

Asked: Take the compound Cc1nn(C)c(C)c1CC(=O)Nc1nc(C(C)(C)C)cs1 and say whether its viability at 28.5 h, 10 µM is less than 90%.
Given back: False

Asked: Just wondering, is viability at 28.5 h, 10 µM of CSCCN1CCC(Oc2cncc(OCC3COc4ccccc4O3)n2)C1 (centres unmarked) below 90%?
Given back: False

Asked: Below 90% on viability at 28.5 h, 10 µM? Entry CCOC(=O)CCC(=O)n1c2ccccc2c2ccccc21
Given back: True

Asked: State whether 90% exceeds viability at 28.5 h, 10 µM recorded for CCNC(=O)c1cnc(-c2ccc(F)cc2)c(-c2ccncc2)c1 .
Given back: False

Asked: Given the entry CCC(CC(=O)NCc1c(C)n[nH]c1C)c1c[nH]c2ccccc12 (centres unmarked) , would its reported viability at 28.5 h, 10 µM be below 90%?
Given back: True

Asked: Regarding CCOc1cc(S(=O)(=O)NCCCN2CCOCC2)c(C)cc1C , kindly confirm whether its viability at 28.5 h, 10 µM is beneath 90%.
Given back: False

Asked: In plain terms, does NS(=O)(=O)c1ccc(NC(=O)CSc2ccc3ccccc3n2)cc1 come in under 90% for viability at 28.5 h, 10 µM?
Given back: True

Asked: Confirm or reject: viability at 28.5 h, 10 µM of O=C(NCC(CN1CCOCC1)([N+](=O)[O-])[N+](=O)[O-])c1ccccc1 lies strictly below 90%
Given back: False

Asked: I wonder whether O=C(NCc1cccs1)c1cc(S(=O)(=O)N2CCOCC2)c(Cl)cc1Cl has viability at 28.5 h, 10 µM below 90%. Can you tell?
Given back: False

Asked: Bench note: check whether O=S(=O)(NCCN1CCOCC1)c1ccc(Cl)c(Cl)c1Cl shows viability at 28.5 h, 10 µM below 90%
Given back: False

Asked: Hello, is viability at 28.5 h, 10 µM of the following compound strictly smaller than 90%? N#CC1=C(N)N2C(=C(C#N)C13CCN(Cc1ccccc1)CC3)Nc1ccccc12
Given back: False

Asked: Check if viability at 28.5 h, 10 µM falls below 90% for Cc1nn(C)c2ncc(S(=O)(=O)Nc3cc(C(N)=O)ccc3Cl)cc12 .
Given back: True

Asked: Strictly below 90% in viability at 28.5 h, 10 µM? O=C(NCCc1noc(CO)n1)N(Cc1ccsc1)C1CCCCC1
Given back: False

Asked: For this compound, is viability at 28.5 h, 10 µM lower than 90%? Cc1nn(-c2ccc(F)cc2)c(C)c1CNC(=O)CCC1CCCO1 (centres unmarked)
Given back: True

Asked: Given the entry COc1ccccc1N1CCN(CC(O)COCc2ccc3c(c2)OCO3)CC1 (centres unmarked) [CBK278323C] , would its reported viability at 28.5 h, 10 µM be below 90%?
Given back: False

Asked: A record lists CCN(Cc1ccncc1)C(=O)NCC1CCCCC1 . Is its viability at 28.5 h, 10 µM below 90%?
Given back: False

Asked: API: query returns whether the compound falls strictly under 90% in viability at 28.5 h, 10 µM. Query: COc1ccc(-n2[nH]c(C)c(Cc3c(Cl)cccc3Cl)c2=O)cc1
Given back: False

Asked: # strict comparison: is reported viability at 28.5 h, 10 µM < 90%? input = C=C[C@H]1C[N@@]2CC[C@H]1C[C@@H]2CNS(=O)(=O)c1ccc(NC(C)=O)cc1
Given back: False

Asked: Quick check: does CC(C)(C)C(=O)N1CCC(n2nc(-c3cccs3)ccc2=O)CC1 have viability at 28.5 h, 10 µM under 90%?
Given back: False

Asked: Problem: For the compound CCOc1ccc(NC(=O)C(=O)NC2CCCCC2)cc1 , is viability at 28.5 h, 10 µM under 90%?
Given back: False

Asked: For COc1cccc(CC(=O)N2CCC(Cc3ccc(-c4ccccc4)cc3)(C(N)=O)CC2)c1 , is the recorded viability at 28.5 h, 10 µM below the cut-off of 90%?
Given back: False

Asked: Consider N#CC(C(N)=O)C(c1ccc(Br)cc1)c1c(-c2ccccc2)nn(-c2nc(-c3ccccc3)cs2)c1O (centres unmarked) . Does its viability at 28.5 h, 10 µM lie strictly below 90%?
Given back: False

Asked: I wonder whether Cn1ccnc1C(NC(=O)c1ccncc1)c1ccc(F)c(F)c1 (centres unmarked) has viability at 28.5 h, 10 µM below 90%. Can you tell?
Given back: False
